Where these numbers come from: paper PMC9965875

Known cytotoxicity at 10 µM of a selection of compounds
- METHOD_NOTES: in vitro
- EXPERIMENTAL_CONTEXT: BALB/c, mouse
I only need the number, in %, no unit after it.

{"MOLECULAR_STRING": "O=CNCNc1c2c(nc3ccccc13)CCCC2", "cytotoxicity at 10 µM, %": 88.1}
{"MOLECULAR_STRING": "Clc1ccc2c(NCCCCCNc3c4c(nc5cc(Cl)ccc35)CCCC4)c3c(nc2c1)CCCC3", "cytotoxicity at 10 µM, %": 87.5}
{"MOLECULAR_STRING": "Clc1ccc2c(NCCCCCCCCCCNc3c4c(nc5cc(Cl)ccc35)CCCC4)c3c(nc2c1)CCCC3", "cytotoxicity at 10 µM, %": 99}
{"MOLECULAR_STRING": "O=CNCCNc1c2c(nc3ccccc13)CCCC2", "cytotoxicity at 10 µM, %": 99.5}

// cytotoxicity at 10 µM lookup, key: `c1ccc2c(NCCCCCCCCNc3c4c(nc5ccccc35)CCCC4)c3c(nc2c1)CCCC3`
99.5
